Data credit: patent US20230257367A1

molecular target: TRβ-LBD/RXRα (Homo sapiens, UniProt P10828); construct: TRβ-LBD (Invitrogen, PV4764) with a GST tag were used; purchased Invitrogen (TRβ-LBD); Pharmaron (RXRα) PV4764; experiment: In vitro binding experiment (TR-FRET SRC2-2 co-activator peptide recruitment), TRβ; type: biochemical; settings: 4 h incubation at room temperature
Sequence (P10828 217-461 limits assumed, other chains not shown): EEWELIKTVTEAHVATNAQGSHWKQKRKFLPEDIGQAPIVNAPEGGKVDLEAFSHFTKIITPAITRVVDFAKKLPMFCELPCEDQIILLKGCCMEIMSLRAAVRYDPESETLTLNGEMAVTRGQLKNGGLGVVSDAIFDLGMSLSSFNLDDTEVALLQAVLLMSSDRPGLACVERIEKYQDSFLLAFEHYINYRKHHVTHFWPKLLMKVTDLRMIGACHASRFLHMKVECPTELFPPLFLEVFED
Sequence (P19793 whole entry partner, other chains not shown, the tested form may be a part): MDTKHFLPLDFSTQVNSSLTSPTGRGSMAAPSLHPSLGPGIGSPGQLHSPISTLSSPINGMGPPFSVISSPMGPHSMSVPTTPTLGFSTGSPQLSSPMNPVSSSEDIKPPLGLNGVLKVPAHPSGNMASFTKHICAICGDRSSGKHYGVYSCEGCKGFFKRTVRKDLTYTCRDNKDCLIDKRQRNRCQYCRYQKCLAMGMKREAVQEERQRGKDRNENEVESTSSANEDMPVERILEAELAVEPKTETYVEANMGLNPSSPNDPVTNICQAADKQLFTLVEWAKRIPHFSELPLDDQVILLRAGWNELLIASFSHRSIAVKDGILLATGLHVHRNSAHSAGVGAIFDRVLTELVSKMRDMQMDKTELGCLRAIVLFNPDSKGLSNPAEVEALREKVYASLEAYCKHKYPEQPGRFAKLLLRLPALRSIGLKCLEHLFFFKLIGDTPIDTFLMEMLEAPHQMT
attribute_measured: EC50 (µM)

Known results for compounds:
CC(C)c1nc(Sc2c(Cl)cc(-n3ncc(=O)[nH]c3=O)cc2Cl)ncc1O
0.011
CC(C)c1nc(Oc2c(Cl)cc(-n3nc(C#N)c(=O)[nH]c3=O)c3c2CCC3)ncc1O
0.054
O=c1cnn(-c2cc(Cl)c(Oc3ncc(O)c(C4CC4)n3)c(Cl)c2)c(=O)[nH]1
0.04
N#Cc1nn(-c2cc(Cl)c(Oc3ncc(O)c(CC4CCCCC4)n3)c(Cl)c2)c(=O)[nH]c1=O
0.089

[1] CC(C)c1nc(Oc2c(Cl)cc(-n3ncc(=O)[nH]c3=O)cc2Cl)ncc1O
[2] O=c1cnn(-c2cc(Cl)c(Oc3ncc(O)c(Cc4ccccc4)n3)c(Cl)c2)c(=O)[nH]1
[3] O=c1cnn(-c2cc(Cl)c(Oc3ncc(O)c(Cc4ccc(F)cc4)n3)c(Cl)c2)c(=O)[nH]1
Q: Give the ascending ranking of the items by reported EC50. List labels; respect the requested ordering.
Result: 3, 1, 2

---

assay: PK experiment of cynomolgus monkeys; type: in vivo; settings: male, cynomolgus monkey; PO, 5 mg/kg, single dose, plasma; read-out: Peak concentration Cmax
attribute_measured: Cmax (ng/mL)

[P] CC(C)c1cc(Oc2c(Cl)cc(-n3nc(C#N)c(=O)[nH]c3=O)cc2Cl)n[nH]c1=O [MGL3196, reference compound]
[Q] CC(C)c1nc(Oc2c(Cl)cc(-n3ncc(=O)[nH]c3=O)cc2Cl)ncc1O [KH06]
Q: Which gives the smaller Cmax number: P or Q ? Select an item and report its label.
Result: P
(P: 430 ng/mL, Q: 18300 ng/mL)

---

molecular target: TRβ-LBD/RXRα (Homo sapiens); construct: TRβ-LBD (Invitrogen, PV4764) with a GST tag were used; purchased Invitrogen (TRβ-LBD); Pharmaron (RXRα) PV4764; test: In vitro binding experiment (TR-FRET SRC2-2 co-activator peptide recruitment), TRβ; type: biochemical; details: 4 h incubation at room temperature
attribute_measured: EC50 (µM)

Use the examples below as a reference point.
O=c1cnn(-c2cc(Cl)c(Oc3ncc(O)c(CC4CCCCC4)n3)c(Cl)c2)c(=O)[nH]1 [KHE008]
0.067
CC(C)c1nc(Oc2c(Cl)cc(-n3nc(C#N)c(=O)[nH]c3=O)c3c2CCO3)ncc1O [KH07]
0.048
CCC(CC)c1nc(Oc2c(Cl)cc(-n3nc(C#N)c(=O)[nH]c3=O)cc2Cl)ncc1O [KHE009]
0.04
[2H]C([2H])([2H])C(c1nc(Oc2c(Cl)cc(-n3nc(C#N)c(=O)[nH]c3=O)cc2Cl)ncc1O)C([2H])([2H])[2H] [KH15]
0.014

[1] N#Cc1nn(-c2cc(Cl)c(Oc3ncc(O)c(C4CC(F)(F)C4)n3)c(Cl)c2)c(=O)[nH]c1=O [KHE019]
[2] CC(C)c1nc(Oc2c(Cl)cc(NCC(=O)O)cc2Cl)ncc1O [KH04]
[3] [2H]C([2H])([2H])C(c1nc(Oc2c(Cl)cc(-n3ncc(=O)[nH]c3=O)cc2Cl)ncc1O)C([2H])([2H])[2H] [KH16]
[4] CC(C)c1nc(Oc2c(Cl)cc(-n3nc(C#N)c(=O)[nH]c3=O)cc2Cl)ncc1O [KH03]
Q: Sort the 4 molecules by EC50; largest first, smallest last. Would you mind listing the labels in the order requested?
Result: 1, 2, 4, 3

---

test: PK experiment of cynomolgus monkeys; type: in vivo; details: cynomolgus monkey, plasma; PO, 5 mg/kg, single dose, male cynomolgus monkeys; read-out: Half-life period (T1/2) (converted)
attribute_measured: half-life (h)
Numbers only here, please. The scale is h.

Q: Give me measured half-life, please, for this compound: "CC(C)c1nc(Oc2c(Cl)cc(-n3ncc(=O)[nH]c3=O)cc2Cl)ncc1O"
Result: 16.7

---

experiment: PK experiment of cynomolgus monkeys; format: in vivo; conditions: cynomolgus monkey, plasma; IV, 1 mg/kg, single dose, male cynomolgus monkeys; read-out: Half-life period (T1/2) (converted)
attribute_measured: half-life (h)

[A] CC(C)c1nc(Oc2c(Cl)cc(-n3ncc(=O)[nH]c3=O)cc2Cl)ncc1O
[B] CC(C)c1cc(Oc2c(Cl)cc(-n3nc(C#N)c(=O)[nH]c3=O)cc2Cl)n[nH]c1=O [MGL3196, reference compound]
Q: Please state the entry with greater half-life among A and B . The response must carry the label of the picked entry.
Result: A

---

target: TRα (Homo sapiens); construct: host or cells: HEK293T; experiment: In vitro TRα cell transfection experiment (GAL4 luciferase reporter, HEK293T); assay type: cell-based
attribute_measured: EC50 (µM)

Example entries and their recorded answers appear below.
O=c1cnn(-c2cc(Cl)c(Oc3ncc(O)c(Cc4ccccc4)n3)c(Cl)c2)c(=O)[nH]1
0.269
CC(C)c1nc(Oc2c(Cl)cc(-n3nc(C#N)c(=O)[nH]c3=O)c3c2CCC3)ncc1O
2.74

[I] N#Cc1nn(-c2cc(Cl)c(Oc3ncc(O)c(CC4CCCCC4)n3)c(Cl)c2)c(=O)[nH]c1=O
[II] O=c1cnn(-c2cc(Cl)c(Oc3ncc(O)c(CC4CCCCC4)n3)c(Cl)c2)c(=O)[nH]1
Q: Hi there, can you help? I need to know whether I or II has lower measured EC50. In your reply, give the label of the chosen option.
Result: II

---

experiment: PK experiment of cynomolgus monkeys; format: in vivo; details: male, cynomolgus monkey; IV, 1 mg/kg, single dose, plasma; read-out: Peak concentration Cmax
attribute_measured: Cmax (ng/mL)

[a] CC(C)c1cc(Oc2c(Cl)cc(-n3nc(C#N)c(=O)[nH]c3=O)cc2Cl)n[nH]c1=O [MGL3196, reference compound]
[b] CC(C)c1nc(Oc2c(Cl)cc(-n3ncc(=O)[nH]c3=O)cc2Cl)ncc1O
Q: Input pair: a , b . Output: entry with lower Cmax. Identify your selection by its label.
Result: a
(a: 11200 ng/mL, b: 20700 ng/mL)

---

biological target: TRα-LBD/RXRα (Homo sapiens); construct: TRα-LBD (Invitrogen, PV4762), or TRβ-LBD (Invitrogen, PV4764) with a GST tag were used; purchased Invitrogen (TRα-LBD); Pharmaron (RXRα) PV4762; assay: In vitro binding experiment (TR-FRET SRC2-2 co-activator peptide recruitment), TRα; assay type: biochemical; details: 4 h incubation at room temperature
Sequence (P10827 1-410 isoform P10827-2, other chains not shown): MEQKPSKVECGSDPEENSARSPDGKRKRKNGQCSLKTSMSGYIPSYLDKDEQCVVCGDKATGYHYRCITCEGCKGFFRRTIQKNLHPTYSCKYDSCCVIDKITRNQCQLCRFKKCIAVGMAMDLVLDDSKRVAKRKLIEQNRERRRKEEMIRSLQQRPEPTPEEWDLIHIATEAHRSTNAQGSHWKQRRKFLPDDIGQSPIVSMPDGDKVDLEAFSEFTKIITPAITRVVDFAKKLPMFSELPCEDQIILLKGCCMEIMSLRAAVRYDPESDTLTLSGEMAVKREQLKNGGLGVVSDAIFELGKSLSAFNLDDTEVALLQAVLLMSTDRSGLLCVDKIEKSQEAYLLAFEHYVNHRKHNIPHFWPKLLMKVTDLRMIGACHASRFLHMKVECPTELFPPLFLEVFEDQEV
Sequence (P19793 whole entry partner, other chains not shown, the tested form may be a part): as the sequence (P19793 whole entry partner, other chains not shown, the tested form may be a part) above
attribute_measured: EC50 (µM)

Illustrative cases are given below, each with its answer.
CC(C)c1nc(Oc2c(Cl)cc(-n3nc(C#N)c(=O)[nH]c3=O)cc2Cl)ncc1O [KH03]
0.144
N#Cc1nn(-c2cc(Cl)c(Oc3ncc(O)c(CC4CCCCC4)n3)c(Cl)c2)c(=O)[nH]c1=O [KHE007]
5.12

[P] N#Cc1nn(-c2cc(Cl)c(Oc3ncc(O)c(Cc4ccccc4)n3)c(Cl)c2)c(=O)[nH]c1=O [KH09]
[Q] CC(C)c1nc(Oc2c(Cl)cc(-n3nc(C#N)c(=O)[nH]c3=O)c3c2CCO3)ncc1O [KH07]
Q: Lower EC50: P or Q ? Reply with the label of the item you choose.
Result: Q
(Q: 0.31 µM, P: 1.88 µM)

[P] O=c1cnn(-c2cc(Cl)c(Oc3ncc(O)c(Cc4ccccc4)n3)c(Cl)c2)c(=O)[nH]1 [KH10]
[Q] CC(C)c1nc(Oc2c(Cl)cc(-n3ncc(=O)[nH]c3=O)c3c2CCC3)ncc1O [KH14]
[R] O=c1cnn(-c2cc(Cl)c(Oc3ncc(O)c(C4CC4)n3)c(Cl)c2)c(=O)[nH]1 [KHE018]
[S] N#Cc1nn(-c2cc(Cl)c(Oc3ncc(O)c(C4CC4)n3)c(Cl)c2)c(=O)[nH]c1=O [KHE017]
[T] CC(C)c1nc(Sc2c(Cl)cc(-n3ncc(=O)[nH]c3=O)cc2Cl)ncc1O [KH18]
Q: Ordering criterion: EC50; begin with the maximum. Arrange the labels as the request states and list them.
Result: P, S, R, T, Q
(P: 1.47 µM, S: 0.737 µM, R: 0.346 µM, T: 0.188 µM, Q: 0.102 µM)

[I] CC(C)c1nc(Oc2c(Cl)cc(-n3ncc(=O)[nH]c3=O)cc2Cl)ncc1O [KH06]
[II] CC(C)c1nc(Oc2c(Cl)cc(NC(=O)C(=O)O)cc2Cl)ncc1O [KHE021]
Q: Name the one with the greater EC50 value, either I or II as given. When you have decided, please share the label of that item.
Result: I
(I: 0.094 µM, II: 0.008 µM)
